All figures here come from paper PMC6409085.

System: S. furcifera adults
Test: Y-tube olfactometer behavioral trials
Assay type: in vivo, Sogatella furcifera
Conditions: odorant 50 µL/L vs hexane; adults
Method: To test the effect of the rice odorants on the behavior of S. furcifera adults, a glass Y-tube olfactometer (inner diameter 2.0 cm, stem 13 cm, arms 10 cm, angle of arms 60°) according to the previously described ([Wang et al., 2014b]) was employed. An airtight cubic box (70 by 45 by 30 cm) was used to position Y-tube, and the Y-tube was lighted by a 30-W filament lamp 25 cm above it. […]
Catalogue of number of insects choosing hexane arm values
Endpoint name: number of insects choosing hexane arm

- Molecule: "CCCCCC=O"
  Assay value: 9
- Molecule: "CCCCCCCC=O"
  Assay value: 15
- Molecule: "CC/C=C\\CCO [(Z)-3-hexenol]"
  Assay value: 13
- Molecule: "C=CC(C)(O)CCC=C(C)C (stereo not shown)"
  Assay value: 14
- Molecule: "CCCCCC(C)=O"
  Assay value: 8
- Molecule: "C=C/C(C)=C/C/C=C(\\C)CCC=C(C)C"
  Assay value: 10
- Molecule: "CCCCCCC=CCO"
  Assay value: 12
- Molecule: "C=CC(C)(O)CCC=C(C)CCC=C(C)C (mixture of isomers)"
  Assay value: 13
- Molecule: "CCCCCCCCCCCCC=O"
  Assay value: 11
- Molecule: "CCC/C=C/CO [(E)-2-hexenol]"
  Assay value: 9
- Molecule: "CC(=O)c1ccccc1"
  Assay value: 11
- Molecule: "CCCCCCCC"
  Assay value: 19
- Molecule: "CCCCCCCCCCCCCCCCCCC"
  Assay value: 13

====

target: SfurOBP11 (Sogatella furcifera, UniProt V5T6E3); test: biochemical; assay type: binding; settings: ligand concentration 18, replicate 1
Sequence (V5T6E3 entry or part of it): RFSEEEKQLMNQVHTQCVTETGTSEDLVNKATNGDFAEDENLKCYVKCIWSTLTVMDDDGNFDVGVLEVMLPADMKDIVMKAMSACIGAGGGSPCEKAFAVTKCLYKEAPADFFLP
Endpoint name: Fluorescence intensity, fluorescence competitive binding assay, OBP11

- Molecule: "CCCCCCCCCCCCCCCC [n-hexadecane]"
  Assay value: 22525
- Molecule: "CC(=O)/C=C/C1=C(C)CCCC1(C)C [β-Ionone]"
  Assay value: 17103
- Molecule: "C[C@@H]1CC[C@H]2C(C)(C)[C@H]3C[C@@]12CC[C@@]3(C)O [cedrol]"
  Assay value: 37284
- Molecule: "CCCCCCCCCCCCCC [n-tetradecane]"
  Assay value: 33050
- Molecule: "CCCCCCC=CCO [2-nonen-1-ol]"
  Assay value: 30643
- Molecule: "OC1CCCCC1 [cyclohexanol]"
  Assay value: 23329
- Molecule: "Cc1ccc(C(C)C)cc1 [4-isopropyltoluene]"
  Assay value: 24841
- Molecule: "CC1=CC[C@@H](C(C)(C)O)CC1 [α-terpineol]"
  Assay value: 25701
- Molecule: "CCCCCCCCCCC [n-hendecane]"
  Assay value: 34849
- Molecule: "CC(=O)c1ccccc1 [acetophenone]"
  Assay value: 21957
- Molecule: "CCCCCCCCCCCCC=O [tridecanal]"
  Assay value: 29957
- Molecule: "CCCCCC=O [caproaldehyde]"
  Assay value: 21574
- Molecule: "C=C1CC/C=C(\\C)CC[C@@H]2[C@@H]1CC2(C)C [β-caryophyllene]"
  Assay value: 30250
- Molecule: "CCCCCCCC [n-octane]"
  Assay value: 26966
- Molecule: "C=C/C(C)=C/C/C=C(\\C)CCC=C(C)C [α-farnesene]"
  Assay value: 36648
- Molecule: "O=C(c1ccccc1)c1ccccc1 [benzophenone]"
  Assay value: 16341
- Molecule: "O=Cc1ccccc1 [benzaldehyde]"
  Assay value: 18084
- Molecule: "Cc1cc(C(C)(C)C)c(O)c(C(C)(C)C)c1 [BHT(2,6-di-tert-butyl-4-methylphenol)]"
  Assay value: 16028
- Molecule: "C/C(=C\\CO)CCC[C@H](C)CCC[C@H](C)CCCC(C)C [plant alcohol]"
  Assay value: 27356
- Molecule: "CCCCCCCCC=O [nonanal]"
  Assay value: 27255
- Molecule: "CCCCCC(C)=O [2-heptanone]"
  Assay value: 20181
- Molecule: "C=CC(C)(O)CCC=C(C)C (stereo not shown) [linalool]"
  Assay value: 30237
- Molecule: "CC(C)COC(=O)CCCCC(=O)OCC(C)C [DA(diisobutyl adipate)]"
  Assay value: 20721
- Molecule: "COC(=O)c1ccccc1 [benzoic acid methylester]"
  Assay value: 22003
- Molecule: "c1ccc2ccccc2c1 [naphthalene]"
  Assay value: 25004

====

biological target: SfurOBP2 (Sogatella furcifera, UniProt V5T759); test: biochemical; assay type: binding; settings: ligand concentration 10 (unit not given), replicate column 1 of 3
Sequence (V5T759 entry or part of it): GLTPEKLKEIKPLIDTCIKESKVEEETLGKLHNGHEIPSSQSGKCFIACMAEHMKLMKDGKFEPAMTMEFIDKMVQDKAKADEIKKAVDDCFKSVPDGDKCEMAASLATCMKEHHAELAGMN
Endpoint name: Fluorescence competitive binding assay, OBP2 (raw fluorescence reading)

- Compound: "C=CC(C)(O)CCC=C(C)CCC=C(C)C (mixture of isomers) [nerolidol]"
  Assay value: 12524
- Compound: "O=Cc1ccccc1 [benzaldehyde]"
  Assay value: 13559
- Compound: "CCCCCCCCCCCCC=O [tridecanal]"
  Assay value: 16213
- Compound: "c1ccc2ccccc2c1 [naphthalene]"
  Assay value: 20596
- Compound: "CCCCCCCCCCC [n-hendecane]"
  Assay value: 14583
- Compound: "C[C@@H]1CC[C@H]2C(C)(C)[C@H]3C[C@@]12CC[C@@]3(C)O [cedrol]"
  Assay value: 26972
- Compound: "CCCCCC(C)=O [2-heptanone]"
  Assay value: 15741
- Compound: "CCCCCCCCCCOCCCCCCCCCC [didecyl ether]"
  Assay value: 37285
- Compound: "CC(C)COC(=O)CCCCC(=O)OCC(C)C [DA(diisobutyl adipate)]"
  Assay value: 15320
- Compound: "CCCCCCCCCCCCCC [n-tetradecane]"
  Assay value: 21153
- Compound: "CCCCCCCC [n-octane]"
  Assay value: 15063
- Compound: "OC1CCCCC1 [cyclohexanol]"
  Assay value: 16551
- Compound: "C=CC(C)(O)CCC=C(C)C (centres unmarked) [linalool]"
  Assay value: 17948
- Compound: "CC1=CC[C@@H](C(C)(C)O)CC1 [α-terpineol]"
  Assay value: 16415
- Compound: "CCCCCCCCCCCCCCCC(=O)OC [MH(methyl hexadecanoate)]"
  Assay value: 53038
- Compound: "CCCCCCCCCCCCO [lauryl alcohol]"
  Assay value: 16387
- Compound: "C=C1CC/C=C(\\C)CC[C@@H]2[C@@H]1CC2(C)C [β-caryophyllene]"
  Assay value: 16274
- Compound: "CCCCCCCCCCCCCCCCCCC [n-nonadecane]"
  Assay value: 22518
- Compound: "CC(=O)c1ccccc1 [acetophenone]"
  Assay value: 16925
- Compound: "CCCCCCCCC=O [nonanal]"
  Assay value: 18739
- Compound: "C=C(C)C1CC=C(C)CC1 (single isomer, unassigned; (+)) [(+)-limonene]"
  Assay value: 16329
- Compound: "Cc1cc(C(C)(C)C)c(O)c(C(C)(C)C)c1 [BHT(2,6-di-tert-butyl-4-methylphenol)]"
  Assay value: 14398
- Compound: "O=C(c1ccccc1)c1ccccc1 [benzophenone]"
  Assay value: 13747

====

Target: SfurOBP11 (Sogatella furcifera, UniProt V5T6E3)
Assay: biochemical
Type: binding
Conditions: ligand concentration 14, replicate 3
Method: Thirty-six rice odorants ([He et al., 2014]; [Wang et al., 2017]) and 1-N-phenyl-naphthylamine (1-NPN) were purchased from Sigma-Aldrich (St Louis, MO, USA). […] Fluorescence competitive binding assays were performed on Tecan Spark 10M (Tecan Group Ltd., Männedorf, Switzerland) with the F96 Black ELIAS Plate (Sangon) ([Khuhro et al., 2017]; [Liu et al., 2017]). The solutions were excited at 337 nm and emission spectra were recorded between 390 and 490 nm. […]
Catalogue of Fluorescence intensity, fluorescence competitive binding assay, OBP11 values
Endpoint name: Fluorescence intensity, fluorescence competitive binding assay, OBP11

- Compound: "OC1CCCCC1"
  Assay value: 22199
- Compound: "C=C(C)C1CC=C(C)CC1 (single isomer, unassigned; (+)) [(+)-limonene]"
  Assay value: 19052
- Compound: "CCC/C=C/CO [(E)-2-hexenol]"
  Assay value: 22816
- Compound: "C[C@@H]1CC[C@H]2C(C)(C)[C@H]3C[C@@]12CC[C@@]3(C)O"
  Assay value: 35226
- Compound: "C/C(=C\\CO)CCC[C@H](C)CCC[C@H](C)CCCC(C)C"
  Assay value: 20817
- Compound: "CC(C)COC(=O)CCCCC(=O)OCC(C)C [DA(diisobutyl adipate)]"
  Assay value: 20151
- Compound: "C=CC(C)(O)CCC=C(C)C (stereo not shown)"
  Assay value: 26664
- Compound: "CCCCCCC=CCO"
  Assay value: 28574
- Compound: "CCCCCCCC=O"
  Assay value: 26309
- Compound: "Cc1cc(C(C)(C)C)c(O)c(C(C)(C)C)c1"
  Assay value: 15881
- Compound: "COC(=O)c1ccccc1"
  Assay value: 21306
- Compound: "O=C(c1ccccc1)c1ccccc1"
  Assay value: 16199
- Compound: "CCCCCCCCCCCCCCCC(=O)OC [MH(methyl hexadecanoate)]"
  Assay value: 49789
- Compound: "O=Cc1ccccc1"
  Assay value: 20954
- Compound: "CC/C=C\\CCO [(Z)-3-hexenol]"
  Assay value: 18680
- Compound: "Cc1ccc(C(C)C)cc1"
  Assay value: 24226
- Compound: "CCCCCCCCCCCCC=O"
  Assay value: 25235
- Compound: "CC1=CC[C@@H](C(C)(C)O)CC1"
  Assay value: 22487
- Compound: "CCCCCCCCCCCCCC"
  Assay value: 31537
- Compound: "CCCCCCCC"
  Assay value: 23357
- Compound: "CC(=O)c1ccccc1"
  Assay value: 20452
- Compound: "CCCCCCCCCCOCCCCCCCCCC"
  Assay value: 65311
- Compound: "CCCCCCCCCCCCCCCCCCC"
  Assay value: 31487
- Compound: "CCCCCCCCC=O"
  Assay value: 27383
- Compound: "C=C/C(C)=C/C/C=C(\\C)CCC=C(C)C"
  Assay value: 32302
